# assay_comment: yeast display, Sf9 membrane polyspecificity reagent, FACS + sequencing; frameworks hold sequencing errors
quantity: polyreactivity (PSR sort gate)

>>> reported_measurement("QVQLVESGGGLVQSGGSLRLSCAASGSTVDDNAMGWSRQAPGQVMELVAAIDTSGGSTYADSVKGRFTISRYNAKNTVYLQMNSQKPEDTAVYYCAKPFSSNSWSHGYWGQGTQVTVSS")
"low polyreactivity"
>>> reported_measurement("QVQLVESGGGLVQAGGSLRLSCAASGRIFYSNAMGWYRQAPGKERELVAAIRWSGGRTYYADSVNGRFTISRDNAKNSVYLQMNSLKPEDTAGYYCNARGYSGVSGKYGYWGQGTQVTVSS")
"high polyreactivity"
>>> reported_measurement("QVQLVESGGGLVQAGGSLRLSCAASGRTFNRYAMGWYRQAPGKERELVAAITRGGSTYYADSVKGRFTISRDNAQNTVYLQMNSLKPEDTAVYYCAKYVYSEGYYWGQGTQVTVSS")
"high polyreactivity"
>>> reported_measurement("QVQLVESGGGLVQAGGSLRLSCAPSGLIFYRYAMGWYRQAPGKERELVAAITRGGSTHYADSVKGRFTISRDNAKFTVYLQMNSLKPEDTAVYYCAATFKGRIYRYEYWGQGTQVTVSS")
"high polyreactivity"
>>> reported_measurement("QVQLVESGGGLVQAGGSLRLSCAASGRTFTGYAMGWYRQAPGKERELVAAISRRGASTYYADSVKGRFTISRDNAKNTVYLQMNSLKPEDTAVYYCAAYLYGLWSVGRDYWGQGTQVTVSS")
"high polyreactivity"

Record polyreactivity (PSR sort gate) for all entries; do not skip any.
1. QVQLVESGGGLVQAGGSLRLSCAASGRIFVRNAMGWYRQAPGKERELVAAITSGAGSTNYADSVKGRFTISRDNAKNTVYLQMNSLKPEDTAVYYCAADYETGAVSILDDYWGQGTQVTVSS
2. QVHLVESGGGLVQAGGSLRLSCAASGRIFRFYAMGWYRQAPGKERELVADISRRGGSTYYADSVKGRFTISRDNAKNTVYLQMNSLKPEDTAVYYCNARWYRTGSTYHEDYWGQGTQVTVSS
3. QDQLVESGGGLVEAGGSLRLSCAASGRTFWLNAMGWYRQAPGKERELVATISSSSGSTTYADSVKGRFTSSRDNAKNTVYIQMNSLKPEDTAVYYCNVDDPFYSGVVEFDYWGQGTQVTVSS
4. QVQLVESGGGLVQAGGSLRLSCADSGRIICWYAMGWYRQAPGKERELVAAISTGSRTYYADSVKGRFTISRDNAKTTVYLQMNSLKPEDTAVYYCAASLYSGYVSWGQGTQVTVSS
5. QVQLVESGGGLVQAGGSLRLSCAASGRTFYQYAMGWYRQAPGKERELVAAITRRGGSTYYADSVKGRFTISRDNAKNTVYLQMNSLKPDDTAVYYCNAQYKKGFDYWGQGPQVTVSS
6. QVQLVESGGGLVQAGGSLRLSCAASGFTFGYYDMGWYRQAPGKERELVAAISSSDVSTYADSVKGRFTISRDNAKNTVYLQMNSLKPEDTAVYYCAADFWYSYYYWGQGTQVTVSS
7. QVQLVESGGGLVQAGGSLRLSCAASGFIFNINTMGWYRQAPGKERELVAAITLNGDGTYYADSVKGRFTISRDNAKNTVDIQMNSLNPADTAVDYCNAATWYYYYVSRETYYFDVDYWGQGTQVTVSS
8. QVQLVESGGGLVQAGGSLRLSCAASGSIFSVYAMGWYRQAPGKERELVATITWSGGRTYYADSVKGRYTISRDNAKNTVYLQMNSLKPEDTAVYYCAATSWWATTGFDYWGQGTQVTVSS

stdout:
["low polyreactivity", "high polyreactivity", "low polyreactivity", "low polyreactivity", "high polyreactivity", "high polyreactivity", "low polyreactivity", "low polyreactivity"]

Dear reader, for each entry below, please note its polyreactivity (PSR sort gate).
1. QVQLVESGGGLVQAGGSLRLSCAASGSTLGVYAMGWYRQAPGKERELVAAISSGGSTTYADSVKGRFTISRDNAKNTDYLQMNSLKPEDTAVYYCAATNVRGVYYWGQGTQVTVSS
2. QVQLVESGGCLVQAGGILRLSCAASGSIFVGYDMGWYRQAPGKERELVAAITGTVSTYYADSVKGRFTISRDNAKNTVYLQMNSLKPEDTAVYYCAAEFVYAYGDGGVYWSWMEYWGQGTQVTVSS
3. QVQLVESGGGLVQAGGSLRLSCAASGRTFAGYAMGWYRQAPGKERELVAAISGSGGRTYYADSVKGRFTISRDYAKNTVYLQMNSLKPEDTAVYYCAASQRVYIARSDYWGQGSQVTVSS
4. QVQLVESGGGLVQAGGSLRLICAASGRTLGYNARGWYRQAPGKETELVAAISYGGGGTYYADSVKGRFTISRDNAKNTVYLQMNSLKPEDTAVYYCAKPRAFVGYNHWGQGTQVTVSS
5. QVQLVESGGGVVQAGGSLRLSCAASGIIFLYNVMGWYRQAPAKERELVAAISWRGGTYYAHSVKGRFTISRDNAKNSVYLQMNSLKPEDTAVYYCNTYPAASLYGFSYPYRYDSWGQGTQVTVSS
6. QVQLVESGGGLVQAGGSLRLSCAASGFTFYTYAMRLYRQAPGKERELVAAISKSGGSTYYADSVKGRFTISRDNAKNTVYLQMNSLKPEDTAVYYCAAVVVYFDEYDYWGQGTQVTVSS
7. QVQLVESGGGLVQAGGSLRLSSAASGRIFRINAMGWYRQAPGKERELVADITSGGSTNYADSVKGRFTISRDNAKNTVYLQMNSLKPEDTAVYYCAAAYVTYRTRLDYWGQGTQVTVSS

stdout:
1: high polyreactivity; 2: low polyreactivity; 3: high polyreactivity; 4: low polyreactivity; 5: high polyreactivity; 6: low polyreactivity; 7: low polyreactivity

stdin: Given the entry QVQLVESGGGLVQAGGSLRLSCAASGSTIRLNAMGWYRQAPGKERELVAAISWTGGSTYYADSVKGRFTISRDNAKNTVYLQMNSLKPEDTAVYYCAADWWQGTSHYWGGAYNYWGQGTQVTVSS , report its measured polyreactivity (PSR sort gate).
stdout: low polyreactivity
